Protein target, amino acids: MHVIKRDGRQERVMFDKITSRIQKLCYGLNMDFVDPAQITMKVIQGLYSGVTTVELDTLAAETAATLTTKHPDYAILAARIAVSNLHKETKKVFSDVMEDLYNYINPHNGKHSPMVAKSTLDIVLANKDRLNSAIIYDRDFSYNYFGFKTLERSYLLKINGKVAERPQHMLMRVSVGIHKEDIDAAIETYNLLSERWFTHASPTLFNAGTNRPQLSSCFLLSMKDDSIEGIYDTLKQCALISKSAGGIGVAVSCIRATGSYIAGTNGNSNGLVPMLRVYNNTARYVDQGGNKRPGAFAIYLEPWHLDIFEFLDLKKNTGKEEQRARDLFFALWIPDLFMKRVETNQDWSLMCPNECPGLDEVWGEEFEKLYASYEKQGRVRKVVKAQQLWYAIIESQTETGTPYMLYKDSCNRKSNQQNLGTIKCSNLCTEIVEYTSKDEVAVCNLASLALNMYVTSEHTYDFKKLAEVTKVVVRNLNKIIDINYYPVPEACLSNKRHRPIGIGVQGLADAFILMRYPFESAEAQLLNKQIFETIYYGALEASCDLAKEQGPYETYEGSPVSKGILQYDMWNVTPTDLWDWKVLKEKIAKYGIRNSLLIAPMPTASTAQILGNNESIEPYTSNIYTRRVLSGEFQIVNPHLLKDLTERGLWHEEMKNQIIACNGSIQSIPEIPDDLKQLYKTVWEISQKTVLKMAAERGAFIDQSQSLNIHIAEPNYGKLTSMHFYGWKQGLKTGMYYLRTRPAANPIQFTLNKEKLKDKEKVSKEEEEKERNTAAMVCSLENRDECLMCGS
measurement type: log10 IC50 (log10 of the value in nM)

{"columns": ["compound", "reported value"],
 "data": [
  ["Cc1ccc(F)c([C@@H](C)[C@H](NS(=O)(=O)c2cccc3[nH]ccc23)c2n[nH]c(=O)o2)c1C [Example 152]", 2.85],
  ["Cc1ccc(F)c([C@@H](C)[C@H](NS(=O)(=O)c2ccc(Cl)cc2OC(F)F)c2n[nH]c(=O)o2)c1C [Example 146]", 2.41],
  ["Cc1ccc(F)c([C@@H](C)[C@H](NS(=O)(=O)c2ccc(Cl)cc2C(=O)NOCc2ccccc2)c2n[nH]c(=O)o2)c1C [Example 282]", 2.96],
  ["Cc1c(Cl)ccc(F)c1[C@@H](C)[C@H](NS(=O)(=O)c1ccc(F)c2c1OCCC2(C)O)c1n[nH]c(=O)o1 (single isomer, unassigned) [Example 229A]", 1.78],
  ["Cc1ccc(F)c([C@@H](C)[C@H](NS(=O)(=O)c2ccc(Cl)c3c2OCC(=O)N3CC(F)F)c2n[nH]c(=O)o2)c1C [Example 101]", 2.11],
  ["COc1ccc(-c2ccc(F)c([C@@H](C)[C@H](NS(=O)(=O)c3ccc(Cl)cc3OC)c3n[nH]c(=O)o3)c2C)cc1 [Example 298]", 2.48],
  ["[2H]C([2H])([2H])C1(O)CCOc2c(S(=O)(=O)N[C@H](c3n[nH]c(=O)o3)[C@H](C)c3c(F)ccc(Br)c3C)ccc(Cl)c21 (single isomer, unassigned) [Example 226B]", 1.85],
  ["Cc1c(Cl)ccc(F)c1[C@@H](C)[C@H](NS(=O)(=O)c1ccc(Cl)c2c1OCCC2O)c1n[nH]c(=O)o1 (single isomer, unassigned) [Example 238A]", 2.04],
  ["Cc1ccc(F)c([C@@H](C)[C@H](NS(=O)(=O)c2ccc(Cl)c(C(=O)N3CCCC3)n2)c2n[nH]c(=O)o2)c1C [Example 114]", 1.78],
  ["COc1cc(Cl)ccc1S(=O)(=O)N[C@H](c1n[nH]c(=O)o1)[C@H](C)c1c(F)ccc(-c2ccc(N3CCOCC3)nc2)c1C [Example 315]", 2.28],
  ["Cc1ccc(F)c([C@@H](C)[C@H](NS(=O)(=O)c2ccc(Cl)c(-c3nnn[nH]3)c2)c2n[nH]c(=O)o2)c1C [Example 161]", 2.45],
  ["CCc1ccc(F)c([C@@H](C)[C@H](NS(=O)(=O)c2ccc(Cl)c(C(C)O)c2OC)c2n[nH]c(=O)o2)c1C (stereo partly drawn) [Example 206A]", 2.18]
]}
